Numbers sourced from patent US8209131B2.

- Procedure text: BIAcore binding of proteins to heparin immobilised on a biosensor chip
- Conditions: IL-4 WT and mutants binding to heparin; in s-1 (unit assumed)
Readout name: kd
Answers are plain numbers.

Example cases with answers are listed next.
Molecule	Readout value
E60A: IL-4 mutant, baculovirus expressed (protein) HKCDITLQEIIKTLNSLTEQKTLCTELTVTDIFAASKNTTEKETFCRAATVLRQFYSHHAKDTRCLGATAQQFHRHKQLIRFLKRLDRNLWGLAGLNSCPVKEANQSTLENFLERLKTIMREKYSKCSS	2.76E−03
D87A: IL-4 mutant, baculovirus expressed (protein, UniProt P05112 25-153, looked up, variant D87A) Interleukin-4: HKCDITLQEIIKTLNSLTEQKTLCTELTVTDIFAASKNTTEKETFCRAATVLRQFYSHHEKDTRCLGATAQQFHRHKQLIRFLKRLARNLWGLAGLNSCPVKEANQSTLENFLERLKTIMREKYSKCSS	1.59E−03

Please look at the following molecule next.
Input: Provide kd value for the following molecule: K77A/R85A: IL-4 double mutant (protein, UniProt P05112 25-153, looked up, variant K77A R85A) Interleukin-4: HKCDITLQEIIKTLNSLTEQKTLCTELTVTDIFAASKNTTEKETFCRAATVLRQFYSHHEKDTRCLGATAQQFHRHAQLIRFLKALDRNLWGLAGLNSCPVKEANQSTLENFLERLKTIMREKYSKCSS
Output: 1.78E−03
